Tested on: SF-268 CNS
test method notes: NCI-60 one-dose screen, 48 h (100 = growth as untreated, 0 = no growth, -100 = all killed)
study conditions: 10 µM unless noted
This is part of a sample that, as a whole, favours compounds with a hit. Of some 83,000 tested, about 20% had one in any assay.
Please provide measured growth for the entries that follow.
Report the figure in % without appending any unit label.

Return reported growth. Input compound: O=NN1CCCc2cccc(O)c21 27.8

Return reported growth. Input compound: C1CCC([PH+](C2CCCCC2)C2CCCCC2[PH+](C2CCCCC2)C2CCCCC2)CC1.[Au].[CH-]1CCCCC1CC1CCCC[N-]1 (stereo not given) -33.6

Return reported growth. Input compound: O=NNc1ccccn1 91.1

Return reported growth. Input compound: COc1cc(/C=C\c2cc(OC)c(OC)c(OC)c2)cc(N/C=C\C(=O)c2cc(OC)c(OC)c(OC)c2)c1OC 41.1

Return reported growth. Input compound: CC(C)=CCC[C@H](C(=O)O)[C@@H]1CC[C@]2(C)C3=C(CC[C@@]12C)[C@@]1(C)CC[C@H](O)C(C)(C)[C@@H]1CC3 101

Return reported growth. Input compound: CC(=O)O[C@H](C[C@H](C(C)C)N(C)C(=O)[C@@H](NC(=O)[C@H]1CCCCN1C)C(C)C)c1nc(C(=O)N[C@@H](Cc2ccccc2)C[C@H](C)C(=O)O)c(C(C)C)s1 27.7

Return reported growth. Input compound: C=CC[Se]C(=O)c1ccccc1OC(C)=O 27.1

Return reported growth. Input compound: C=CCc1cc2c(cc1OCC)OCO2 94.8

Return reported growth. Input compound: CC(C)(N)Cc1ccccc1 113

Return reported growth. Input compound: Cc1cc(N(CCCl)CCCl)ccc1C=Nc1ccccc1-c1ccccc1 62.8

====

Tested on: OVCAR-8 ovarian
test method notes: NCI-60 one-dose screen, 48 h (100 = growth as untreated, 0 = no growth, -100 = all killed)
study conditions: 10 µM unless noted
This is part of a sample that, as a whole, favours compounds with a hit. Of some 83,000 tested, about 20% had one in any assay.
Outcome: yes for growth of at least 40%; no for anything lower.

Please check the record CC1(C)N=C(N)N=C(N)N1c1cccc(CCCCc2ccc(Cl)c(S(=O)(=O)F)c2)c1 and state if its growth is at or above 40%. no

Please check the record CCCC[C@H](NC(=O)[C@H]1CCCCN1C)C(=O)N(C)[C@H](C[C@@H](OC(C)=O)c1nc(C(=O)N[C@@H](Cc2ccccc2)C[C@H](C)C(=O)OCC)cs1)C(C)C and state if its growth is at or above 40%. no

Please check the record CC(C)COC(C[N+](=O)[O-])C(Cl)(Cl)Cl (centres undefined) and state if its growth is at or above 40%. yes

Please check the record C[Se]C(=O)c1ccccc1OC(C)=O and state if its growth is at or above 40%. no

Please check the record CC(=O)O[C@@H]1CC[C@]2(C)[C@H]3CC[C@]4(C)C(=O)CC[C@H]4[C@@H]3C[C@@H]3SC(N)=N[C@@]32C1 and state if its growth is at or above 40%. yes

Please check the record COc1ccc(/C=C\c2cc(OC)c(OC)c(OC)c2)c(NS(=O)(=O)c2ccc(F)cc2)c1O and state if its growth is at or above 40%. no

Please check the record COc1ccc(O)c(CNC(=O)CN2CCCC2=O)c1 and state if its growth is at or above 40%. yes

Please check the record C=CC12CCN(CC1)C(C(O)c1ccnc3ccc(OC)cc13)C2 (centres undefined) and state if its growth is at or above 40%. yes

Please check the record CC(C)OC(=O)[C@H](C)NP(=O)(Oc1ccccc1)C1CCCN(O)C1=O (some centres undefined) and state if its growth is at or above 40%. yes

====

Test system: M14 melanoma
test method notes: NCI-60 one-dose screen, 48 h
study conditions: 10 µM unless noted
This is part of a sample that, as a whole, favours compounds with a hit. Of some 83,000 tested, about 20% had one in any assay. Calls of active or inactive are those of the source. Rule for the calls: active = growth percent below 10; inactive = the rest.
Hi there, use one of these labels in your reply, thanks! active, inactive

Lab log entry: CC(C)CCC1(CCCl)C(=O)NC(=O)NC1=O — outcome as called in the assay? inactive

Lab log entry: CC(C)=CCC[C@H](C(=O)O)[C@@H]1CC[C@]2(C)C3=C(CC[C@@]12C)[C@@]1(C)CC[C@H](O)C(C)(C)[C@@H]1CC3 — outcome as called in the assay? inactive

Lab log entry: Nc1ncnc2n[nH]nc12 — outcome as called in the assay? inactive

Lab log entry: COC(=O)[C@]12CCC(C)(C)C[C@H]1[C@H]1C(=O)C[C@@H]3[C@@]4(C)C[C@@]5(CC(C)(C)[C@@H]4CC[C@@]3(C)[C@]1(C)CC2)OO[C@@](C)(C(F)(F)F)O5 — outcome as called in the assay? inactive

Lab log entry: CC1=C(CCCOC(=O)[C@H](N)CC(C)C)C2=C(C)C3(CC3)[C@@](C)(O)C(=O)C2=C1 — outcome as called in the assay? active

Lab log entry: [Cl][Hg][c]1cc(Br)cc(Br)c1 — outcome as called in the assay? inactive

Lab log entry: O=C1C(N2CC2)=C(N2CC2)C(=O)C(N2CC2)=C1N1CC1 — outcome as called in the assay? active

Lab log entry: COC(=O)[C@@H](C)C[C@H](Cc1ccccc1)NC(=O)c1csc([C@@H](C[C@H](C(C)C)N(C)C(=O)[C@H](C)NC(=O)[C@H]2CCCN2C)OC(C)=O)n1 — outcome as called in the assay? inactive

====

Tested on: NCI-H226 lung
test method notes: NCI-60 one-dose screen, 48 h (100 = growth as untreated, 0 = no growth, -100 = all killed)
study conditions: 10 µM unless noted
About 83,000 compounds went through this panel and 20% of them were active in at least one assay; those are over-represented in the sample as a whole.
Please provide measured growth for the entries that follow.
Report the figure in % without appending any unit label.

Give growth for CN(C)C(=O)Oc1ccccc1 tested on NCI-H226 lung. 105

Give growth for CCOC(=O)[C@@H](C)C[C@H](Cc1ccccc1)NC(=O)c1nc([C@@H](C[C@H](C(C)C)N(C)C(=O)[C@@H](NC(=O)[C@H]2CCCCN2C)C(C)C)OC(C)=O)sc1CCOCc1ccccc1 tested on NCI-H226 lung. -80.6

Give growth for O=C1CC2(CC3(Cl)C(Cl)=C(Cl)C2(Cl)C3(Cl)Cl)C(=O)O1 (stereo not drawn) tested on NCI-H226 lung. 110

Give growth for COc1ccc([As]=[As]c2ccc(OC)c(NCS(=O)(=O)O)c2)cc1NCS(=O)(=O)O (stereo not drawn) tested on NCI-H226 lung. 61.9

Give growth for O=[N+]([O-])c1cnc[nH]1 tested on NCI-H226 lung. 105

Give growth for CCCCCCCOC(C(=O)OCCN(CC)CC)(c1ccccc1)c1ccccc1 tested on NCI-H226 lung. 96.4

Give growth for CC[C@H](C)[C@@H]1OC(=O)C(C)(C)[C@H](O)[C@H](Cc2ccccc2)OC(=O)[C@H](C(C)C)OC(=O)[C@@H](NC(=O)c2cccc(NC=O)c2O)[C@@H](C)OC1=O tested on NCI-H226 lung. 51.2

Give growth for COC(=O)[C@H](Cc1ccccc1)NC(=O)c1csc([C@@H](C[C@H](C(C)C)N(C)C(=O)[C@@H](NC(=O)[C@H]2CCCN2C)C2CC2)OC(C)=O)n1 tested on NCI-H226 lung. 58

====

System: PC-3 prostate
test method notes: NCI-60 one-dose screen, 48 h (100 = growth as untreated, 0 = no growth, -100 = all killed)
study conditions: 10 µM unless noted
About 83,000 compounds went through this panel and 20% of them were active in at least one assay; those are over-represented in the sample as a whole.
Please provide measured growth for the entries that follow.
Report the figure in % without appending any unit label.

Return reported growth. Input compound: CCCCCCCCCCCCCCCCCC1OC[C@H](COC(=O)O[C@@H](C(=O)O[C@H]2C[C@@]3(O)[C@@H](OC(=O)c4ccccc4)[C@@H]4[C@]5(OC(C)=O)CO[C@@H]5C[C@H](O)[C@@]4(C)C(=O)[C@H](OC(C)=O)C(=C2C)C3(C)C)[C@@H](NC(=O)c2ccccc2)c2ccccc2)O1 (stereo not given in full) 45.2

Return reported growth. Input compound: CC(=O)ONc1ccc([N+](=O)[O-])c(C(F)(F)F)c1 95.4

Return reported growth. Input compound: CC[CH2][Sn]([Cl])([Cl])[CH2]CC 103

Return reported growth. Input compound: O=C1CN=C(c2ccc(Cl)cc2)c2sccc2N1 98.6

Return reported growth. Input compound: CCCCCCCCCCCCNC(c1ccccc1)C(O)c1ccccc1 (stereo not given) 79.2
